# Test system: Mus musculus
# run description: Phototoxicity in Swiss albino mouse assessed as ear thickness at 140 mg/kg, po after 24 hrs of irradiation
# Assay type: organism-based
# Design: dose 140 mg/kg, route oral
# experimental parameters: in vivo
Provide the reported Activity of each item.
Write the numeric value and follow it with the unit.

Hi! Can you tell me Activity for each of these compounds?
1. COc1ccc(CC2C3=C(CCCC3)CCN2c2c(F)c([N+](=O)[O-])c3c(=O)c(C(=O)O)cn(C4CC4)c3c2OC)cc1 (stereo unspecified)
2. COc1c(N2CCN(C(=O)C3COc4ccccc4O3)CC2)c(F)cc2c(=O)c(C(=O)O)cn(C3CC3)c12 (stereo unspecified)
3. CCN(CC)C(=O)C1CCCN(c2c(F)cc3c(=O)c(C(=O)O)cn(C4CC4)c3c2OC)C1 (stereo unspecified)
4. CCn1cc(C(=O)O)c(=O)c2cc(F)c(N3CCNC(C)C3)c(F)c21 (stereo unspecified) [LOMEFLOXACIN]

Result block:
1: 0.32 mm; 2: 0.32 mm; 3: 0.36 mm; 4: 0.48 mm

Hi! Can you tell me Activity for each of these compounds?
1. COc1c(N2CCN(Cc3ccc4c(c3)OCO4)CC2)c(F)c([N+](=O)[O-])c2c(=O)c(C(=O)O)cn(C3CC3)c12
2. COc1c(N2CC(C)OC(C)C2)c(F)c([N+](=O)[O-])c2c(=O)c(C(=O)O)cn(C3CC3)c12 (stereo unspecified)

Result block:
0.28 mm
0.35 mm
